pIC50: −log10 of the molar value.
FXa (Homo sapiens) data, read-out pIC50
Sequence (P00742 235-488 limits assumed): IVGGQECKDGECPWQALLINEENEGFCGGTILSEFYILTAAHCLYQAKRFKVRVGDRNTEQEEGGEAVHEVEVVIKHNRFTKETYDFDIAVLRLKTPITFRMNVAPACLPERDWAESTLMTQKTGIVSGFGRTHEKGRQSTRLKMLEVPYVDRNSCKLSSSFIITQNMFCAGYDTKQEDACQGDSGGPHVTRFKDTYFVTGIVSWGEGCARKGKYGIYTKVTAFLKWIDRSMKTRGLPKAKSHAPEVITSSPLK
Sequence (P00742 41-179 partner limits assumed): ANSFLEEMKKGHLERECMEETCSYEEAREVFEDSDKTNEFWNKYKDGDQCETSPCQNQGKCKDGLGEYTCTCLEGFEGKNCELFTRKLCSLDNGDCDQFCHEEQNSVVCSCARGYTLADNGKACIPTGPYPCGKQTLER

Consider the worked cases shown below.
[[record]]
compound = "NC(=O)CN1CCc2ccc(N3CCc4c(C(=O)NCC5CC5)nn(-c5cccc(Cl)c5)c4C3=O)cc2C1=O"
assayed_target = "FXa (Homo sapiens)"
assay_result = "< 5.40"

[[record]]
compound = "CC(C)N1CCc2ccc(N3CCc4c(C(=O)NCC5CC5)nn(-c5cccc(Cl)c5)c4C3=O)cc2C1"
assayed_target = "FXa (Homo sapiens)"
assay_result = "4.40 to 5.00"

[[record]]
compound = "CCCN1CCc2ccc(N3CCc4c(C(=O)NCc5cnccc5C)nn(-c5cccc(Cl)c5)c4C3=O)cc2C1=O"
assayed_target = "FXa (Homo sapiens)"
assay_result = "< 4.40"

[[record]]
compound = "Cc1cn(C)nc1CNC(=O)c1nn(-c2cccc(Cl)c2)c2c(=O)n(-c3ccc4c(c3)CN(CCO)CC4)c(C)nc12"
assayed_target = "FXa (Homo sapiens)"
assay_result = "4.40 to 5.00"

[[record]]
compound = "COC(=O)C(NC(=O)c1nn(-c2cccc(Cl)c2)c2c1CCN(c1ccc3c(c1)C(=O)N(C)CC3)C2=O)c1cccnc1 (stereo not shown)"
assayed_target = "FXa (Homo sapiens)"
assay_result = "5.52 to 6.00"

[[record]]
compound = "O=C(Cn1nc(-c2cccc(Cl)c2)c2c1CCN(c1ccc3c(c1)CN(CCO)CC3)C2=O)NCC1CC1"
assayed_target = "FXa (Homo sapiens)"
assay_result = "< 4.40"


We now examine a further compound.
Considering CCNC(=O)c1nn(-c2cc(Cl)ccc2F)c2c1CCN(c1ccc3c(c1)C(=O)N(C)CC3)C2=O , its pIC50 with FXa (Homo sapiens) was recorded as 4.40 to 5.00

* * *

Listed next: entries and their corresponding activity at 40 µM.
target: UniProtKB P00742; test: Related protease inhibition: FXa, fluorogenic substrate; type: biochemical; conditions: fluorogenic substrate at Km, 25° C.; H1-H3 = % activity at 40 μM; read-out: IC50 (human FXa) nM

The cases that follow already have their activity at 40 µM on record.
[[record]]
molecule = "CCNC(=O)c1nn(-c2cccc(Cl)c2)c2c1CCN(c1cc(N3C(=O)CC4CC43)ccc1F)C2=O (stereo not drawn) [Example 1433]"
assay_result = "20 to 80%"

[[record]]
molecule = "CN1CCc2ccc(N3CCc4c(C(=O)NC5CCNCC5(F)F)nn(-c5cccc(Cl)c5)c4C3=O)cc2C1=O (stereo not drawn) [Example 1424]"
assay_result = "20 to 80%"

[[record]]
molecule = "CCNC(=O)c1nn(-c2cccc(Cl)c2)c2c1CCN(c1cccc(N3CCN(C(C)C)C3=O)c1)C2=O [Example 1409]"
assay_result = "> 80%"

[[record]]
molecule = "CN1CCOc2ccc(N3CCc4c(C(=O)N[C@@H]5CCOC5)nn(-c5cccc(Cl)c5F)c4C3=O)cc2C1=O [Example 2048]"
assay_result = "20 to 80%"

[[record]]
molecule = "CN1CCc2ccc(N3CCc4c(C(=O)NCCCO)nn(-c5cccc(Cl)c5)c4C3=O)cc2C1=O [Example 1417]"
assay_result = "20 to 80%"

[[record]]
molecule = "CN1CCc2ccc(N3CCc4c(C(=O)NCC(=O)O)nn(-c5cc(Cl)cc(CN)c5)c4C3=O)cc2C1=O [Example 2056]"
assay_result = "20 to 80%"

[[record]]
molecule = "CN1CCc2ccc(N3CCc4c(C(=O)NC5COCC56CC6)nn(-c5cccc(Cl)c5)c4C3=O)cc2C1=O (stereo not drawn) [Example 1438]"
assay_result = "> 80%"

[[record]]
molecule = "CCNC(=O)c1nn(-c2cccc(C#N)c2C)c2c1CCN(c1ccc3c(c1)C(=O)N(C)CC3)C2=O [Example 2042]"
assay_result = "> 80%"

[[record]]
molecule = "CCNC(=O)c1nn(-c2cccc(Cl)c2)c2c1CCN(c1cccc(N3CCOCC3=O)c1)C2=O [Example 1426]"
assay_result = "20 to 80%"

[[record]]
molecule = "Cc1ccc(CNC(=O)c2nn(-c3cccc(Cl)c3F)c3c2CCN(c2ccc4c(c2)C(=O)N(C)CC4)C3=O)cn1 [Example 2044]"
assay_result = "> 80%"


get_value(item= CCNC(=O)c1nn(-c2cccc(Cl)c2)c2c1CCN(c1ccc(OC)c(CN3CCCCC3)c1)C2=O [Example 1419] , readout=activity at 40 µM) returns 20 to 80%

Recorded result, CCNC(=O)c1nn(-c2cccc(Cl)c2)c2c1CCN(c1cc3c(cc1F)OCCN(C)C3=O)C2=O [Example 1435] , activity at 40 µM: > 80%

* * *

Molecular target: Human Factor XIIa (hFXIIa) (Homo sapiens)
Sequence (P00748 373-615 limits assumed): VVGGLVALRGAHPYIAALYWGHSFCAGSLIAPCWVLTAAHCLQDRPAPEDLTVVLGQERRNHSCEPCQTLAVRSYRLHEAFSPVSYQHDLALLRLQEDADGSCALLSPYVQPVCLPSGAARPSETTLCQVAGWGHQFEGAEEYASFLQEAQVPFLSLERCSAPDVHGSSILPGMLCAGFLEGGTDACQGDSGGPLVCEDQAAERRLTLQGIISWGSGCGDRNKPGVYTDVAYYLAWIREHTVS
Sequence (P00748 20-372 partner limits assumed): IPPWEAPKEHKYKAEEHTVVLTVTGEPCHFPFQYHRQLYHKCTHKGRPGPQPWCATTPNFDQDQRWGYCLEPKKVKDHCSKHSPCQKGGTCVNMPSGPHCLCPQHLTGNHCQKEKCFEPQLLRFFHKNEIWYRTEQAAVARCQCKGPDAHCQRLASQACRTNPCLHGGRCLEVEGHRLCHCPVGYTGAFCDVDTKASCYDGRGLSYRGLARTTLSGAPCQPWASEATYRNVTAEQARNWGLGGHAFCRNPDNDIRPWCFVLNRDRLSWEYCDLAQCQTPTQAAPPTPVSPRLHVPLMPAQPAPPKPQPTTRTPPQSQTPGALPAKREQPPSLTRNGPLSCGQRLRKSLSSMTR
Below, each of the molecules is paired with its reported IC50 value.

Illustrative cases are given below, each with its answer.
[[record]]
molecule = "CN1CCc2ccc(N3CCc4c(C(=O)NCCCO)nn(-c5cccc(Cl)c5)c4C3=O)cc2C1=O"
assayed_target = "Human Factor XIIa (hFXIIa) (Homo sapiens)"
assay_result = "0.3 to 1 µM"

[[record]]
molecule = "CCN1CCOc2ccc(N3CCc4c(C(=O)NCc5cc(C)[nH]n5)nn(-c5cccc(Cl)c5)c4C3=O)cc2C1=O"
assayed_target = "Human Factor XIIa (hFXIIa) (Homo sapiens)"
assay_result = "0.01 to 0.1 µM"

[[record]]
molecule = "CCN1CCc2ccc(N3CCc4c(C(=O)N[C@@H]5CCOC5)nn(-c5cccc(Cl)c5)c4C3=O)cc2C1"
assayed_target = "Human Factor XIIa (hFXIIa) (Homo sapiens)"
assay_result = "0.1 to 0.3 µM"


I looked up Cc1cc(CNC(=O)c2nn(-c3cccc(Cl)c3)c3c2CCN(c2ccc4c(c2)C(=O)N(CCO)[C@H](C)CO4)C3=O)nn1C and its IC50 for Human Factor XIIa (hFXIIa) (Homo sapiens) was 0.3 to 1 µM

Field IC50 (system: Human Factor XIIa (hFXIIa) (Homo sapiens)) for entry O=C(NCc1ncccc1F)c1nn(-c2cccc(Cl)c2)c2c1CCN(c1ccc3c(c1)CN(CCO)CC3)C2=O = 0.01 to 0.1 µM

Measured IC50 (Human Factor XIIa (hFXIIa) (Homo sapiens)), entry CC(=O)N1CCc2ccc(N3CCc4c(C(=O)NCc5cc(C)n(C)n5)nn(-c5cccc(Cl)c5)c4C3=O)cc21 : 0.3 to 1 µM

# value of IC50, Human Factor XIIa (hFXIIa) (Homo sapiens), item Cc1ccnnc1CNC(=O)c1nn(-c2cccc(Cl)c2)c2c1CCN(c1ccc3c(c1)C(=O)N(C)CC3)C2=O = 0.3 to 1 µM

Record CCOC(=O)c1nn(-c2cccc(Cl)c2)c2c1CCN(c1cccc(CN3CCCCC3)c1)C2=O has Human Factor XIIa (hFXIIa) (Homo sapiens) IC50 equal to 0.1 to 0.3 µM

* * *

Record: IC50 reported on Human Factor XIIa (hFXIIa) (Homo sapiens, UniProt P00748).

Before answering, review these 3 worked examples.
[[record]]
compound = "CN1CCc2ccc(N3CCc4c(C(=O)N[C@H]5COC[C@H]5O)nn(-c5cccc(Cl)c5)c4C3=O)cc2C1=O"
assay_result = "100 to 300 nM"

[[record]]
compound = "COc1ccnc(CNC(=O)c2nn(-c3cccc(Cl)c3)c3c2CCN(c2ccc4c(c2)CN(CCO)CC4)C3=O)c1"
assay_result = "10 to 100 nM"

[[record]]
compound = "CN(C)C(=O)c1csc(N2CCc3c(C(=O)NCC4CC4)nn(-c4cccc(Cl)c4)c3C2=O)c1"
assay_result = "10000 to 40000 nM"


Now, please, on to the next compound.
The compound listed as O=C(NCC1CC1)c1nn(-c2cccc(Cl)c2)c2c1CCN(c1ccc3c(c1)CN(C1CCOC1)CC3)C2=O (stereo not shown) shows IC50 equal to 300 to 1000 nM
